Biological target: Histone deacetylase 2 (Homo sapiens)
Sequence (Q92769 whole entry): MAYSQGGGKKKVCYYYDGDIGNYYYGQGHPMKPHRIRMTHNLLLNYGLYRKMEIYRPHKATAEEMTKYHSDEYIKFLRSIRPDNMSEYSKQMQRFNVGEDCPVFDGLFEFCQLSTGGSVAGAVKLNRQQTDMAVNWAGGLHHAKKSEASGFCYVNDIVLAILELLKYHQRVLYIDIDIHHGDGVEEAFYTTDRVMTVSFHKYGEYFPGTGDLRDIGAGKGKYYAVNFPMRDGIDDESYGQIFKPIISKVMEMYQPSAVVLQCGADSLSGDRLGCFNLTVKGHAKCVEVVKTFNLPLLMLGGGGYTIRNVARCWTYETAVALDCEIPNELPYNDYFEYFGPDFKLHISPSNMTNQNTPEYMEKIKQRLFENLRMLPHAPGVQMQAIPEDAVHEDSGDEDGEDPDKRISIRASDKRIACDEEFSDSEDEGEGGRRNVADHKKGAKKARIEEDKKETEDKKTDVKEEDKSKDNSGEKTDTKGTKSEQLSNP
Assay: Inhibition of recombinant human C-terminal His-tagged HDAC2 (1 to end residues) expressed in sf9 insect cells using Boc-Lys(Ac)-AMC as substrate incubated for 60 mins by fluorescence assay
Under this convention, 1 denotes IC50 strictly below 5 nM and 0 denotes IC50 at or above 5 nM.

*Q* Lab log: compare recorded IC50 with 5 nM; is it strictly lower for O=C(CCCCCCC(=O)Nc1n[nH]c2cc(-c3ccc(Cl)cc3)ccc12)NO ?
*A* 1

*Q* Dear colleague, could you confirm whether IC50 of COc1ccccc1-c1ccc2c(NC(=O)CCCCCCC(=O)NO)n[nH]c2c1 falls below 5 nM? Thanks.
*A* 0

*Q* Is IC50 strictly under 5 nM for the entry O=C(CCCCCCC(=O)Nc1n[nH]c2cc(-c3ccncc3)ccc12)NO ?
*A* 0

*Q* IC50 strictly < 5 nM for this compound? COc1cc(OC)cc(-c2ccc3c(NC(=O)CCCCCCC(=O)NO)n[nH]c3c2)c1
*A* 1

*Q* # check: IC50 < 5 nM for COc1cccc(-c2ccc3c(NC(=O)CCCCCCC(=O)NO)n[nH]c3c2)c1F
*A* 0
